Method description: in vitro
Measurement context: human, hela cells, % viability
Catalogue of viability at 28.5 h, 10 µM readings, one per entry.
Give the number; % is assumed, so skip it.

Recorded viability at 28.5 h, 10 µM, per entry:
Cc1cc(CN2CCCC2)cc(C)c1O [CBK028736C]	96.3
CC(=O)N1CCc2sccc2C1c1ccc(NC(=O)C2CC2)cc1 (stereo not drawn) [CBK282907]	87.8
CCc1cccc(-n2nc(C)c3c2NC(=O)CC3C(=O)c2ccc(CC)s2)c1 (stereo not drawn) [CBK294435]	113
Cc1cccc(-n2ncc3c(NCCCN4CCOCC4)ncnc32)c1 [CBK265710]	91.2
CC1CCC(C(N)=O)CN1C(=O)c1ccc(Oc2cccc(Br)c2)nc1 (stereo not drawn) [CBK306005]	106

Exercise: Check the records and state viability at 28.5 h, 10 µM for Cc1ccccc1OCC(=O)Nc1c(C)n[nH]c1C [CBK266046C]
Solution: 106
